Compiled literature IC50, tested on UniProt P43490.

CN1CCN(C(=O)c2ccc3nc(-c4cccc(CNS(C)(=O)=O)c4)c(-c4cccc(CNS(C)(=O)=O)c4)nc3c2)CC1    ≥ 25000 nM
CC(=O)N1CCCC(NC(=O)Nc2ccc3nc(-c4ccc(F)cc4)c(-c4ccc(F)cc4)nc3c2)C1 (stereo not shown)    1000 to 25000 nM

Query: Which IC50 is reported with UniProt P43490 for this entry: O=C(Cc1cccnc1)NCc1ccc2nc(-c3ccc(F)cc3)c(-c3ccc(F)cc3)nc2c1 ?
Reply: 1000 to 25000 nM

Query: Which IC50 is reported with UniProt P43490 for this entry: CCOC(=O)CCCNC(=O)N(Cc1ccc(C#N)cc1)c1ncc(C(=O)NCCCn2ccnc2)s1 ?
Reply: 195 nM

Query: Which IC50 is reported with UniProt P43490 for this entry: O=C(CCc1cccnc1)NCCCCCCn1ccc2cc(O)ccc21 ?
Reply: 1200 nM

----------
Compiled literature IC50, tested on UniProt P43490.
Write the number in nM without appending the unit.

O=C(NCc1ccn2ccnc2c1)c1ccc(C2CCN(C(=O)c3cscn3)C2)cc1 (stereo not shown)    0.623
O=C(NCCCn1ccnc1)c1cnc(N(Cc2ccc(F)cc2)C(=O)CN2CC=CCC2)s1    0.632

Query: Which IC50 is reported with UniProt P43490 for this entry: O=C(NCc1ccc2nccn2c1)c1cnc(N(C[C@H]2CCCO2)C(=O)C2CCOC2)s1 (stereo partly shown) ?
Reply: 0.403

Query: Which IC50 is reported with UniProt P43490 for this entry: Cn1cc(CC(=O)N(CC2CCCO2)c2ncc(C(=O)NCc3ccc4nccn4c3)s2)cn1 (stereo not shown) ?
Reply: 1.8

Query: Which IC50 is reported with UniProt P43490 for this entry: CC1CCN(CC(=O)N(Cc2ccc(F)cc2)c2ncc(C(=O)NCCCn3ccnc3)s2)CC1 ?
Reply: 0.833

Query: Which IC50 is reported with UniProt P43490 for this entry: O=C(NCc1ccn2ccnc2c1)c1ccc(C2CCN(C(=O)c3cccnc3)C2)s1 (stereo not shown) ?
Reply: 0.47

Query: Which IC50 is reported with UniProt P43490 for this entry: O=C(Nc1ccc(OC2CCN(C(=O)Cc3ccc(C(F)(F)F)cc3)CC2)cc1)C1CN(c2ccnnc2)C1 ?
Reply: 42.1

Query: Which IC50 is reported with UniProt P43490 for this entry: O=C(Nc1ccc(C2CCN(C(=O)CSc3ncccn3)CC2)cc1)C1CN(c2cccnn2)C1 ?
Reply: 0.657

Query: Which IC50 is reported with UniProt P43490 for this entry: Cc1ccccc1C(=O)N1CCC(c2ccc(C(=O)NCc3ccn4ccnc4c3)cc2)CC1 ?
Reply: 0.359

Query: Which IC50 is reported with UniProt P43490 for this entry: O=C(NCc1ccn2ccnc2c1)Nc1ccc(OC2CN(C(=O)[C@H]3CCCO3)C2)cc1 ?
Reply: 0.276

Query: Which IC50 is reported with UniProt P43490 for this entry: CC(C)CCC(=O)Nc1ccc(NC(=O)NCc2ccn3ccnc3c2)cc1 ?
Reply: 0.213

----------
Compiled literature pIC50, tested on NAMPT (Homo sapiens).
Answer as the number alone; pIC50 is minus log10 of concentration in mol/L.

COCC(=O)N1CCC(Oc2ccc(NC(=O)C3CN(c4ccnnc4)C3)cc2)CC1    7.25
Cc1cc2ccccc2n1CCCCCCNC(=O)/C=C/c1cccnc1    7.09
CC(C)(C)CC(=O)N1CCC(c2ccc(NC(=O)C3CN(c4cccnn4)C3)cc2)CC1    9.18

Query: Which pIC50 is reported with NAMPT (Homo sapiens) for this entry: CC[C@H](C)C(=O)N1CCC(c2ccc(NC(=O)NCc3ccn4ccnc4c3)cc2)CC1 ?
Reply: 8.90

Query: Which pIC50 is reported with NAMPT (Homo sapiens) for this entry: CCC(COC)NC(=O)N(Cc1ccc(F)cc1)c1ncc(C(=O)NCCCn2ccnc2)s1 (centres unmarked) ?
Reply: 8.76
